- PROTOCOL_TEXT: blockers of mitochondrial fusion, WT vs mutant – cell-based, chemical genetic, wild-type and mutant, confirmation (AID 1361)
- DETAILS: Cell-based mitochondrial fusion phenotype, imaging, WT cells
The source made the active and inactive calls. How the calls were made is not given here.
Entry note: the call must match one of active, inactive

Name the outcome recorded for `CCOC(=O)Cc1c(Sc2ccccc2)c2cc(C)ccc2n1C` in the assay.
active

Name the outcome recorded for `COc1ccc(/C=N/NC(=O)c2ccn[nH]2)cc1COc1ccc(Cl)cc1Cl` in the assay.
active

Name the outcome recorded for `COc1ccc(CCNS(=O)(=O)c2ccc(OC)cc2)cc1` in the assay.
inactive

Name the outcome recorded for `CC(C)C(=O)Nc1cc(S(=O)(=O)Nc2ccc(Cl)cc2)ccc1Cl` in the assay.
active

Name the outcome recorded for Cc1ccc(Cl)cc1N1CCN(CC(=O)NC2CCCc3ccccc32)CC1 (configuration not stated) in the assay.
active

Name the outcome recorded for `COc1cccc(CNC(=O)CNC(=S)N(Cc2ccccc2)Cc2ccccc2F)c1` in the assay.
active

Name the outcome recorded for Cc1ccc2c(c1)C1CN(C)CCC1N2C(=O)c1cn(-c2ccccc2)nc1-c1ccccc1 (configuration not stated) in the assay.
active

Name the outcome recorded for `COc1ccc(-n2ncc3c(NCc4ccco4)ncnc32)cc1` in the assay.
inactive

Name the outcome recorded for `Cc1ccc(C(=O)NC(=S)/C=C2\N(C)c3ccccc3C2(C)C)cc1` in the assay.
active

Name the outcome recorded for `Cc1ccc(Cl)cc1N1CCN(C(=O)c2cccc3c(=O)c(C)c(-c4ccccc4)oc23)CC1` in the assay.
active

Name the outcome recorded for `Cc1ccc(-c2cc(C(F)F)n3ncc(C(=O)Nc4c(C)nn(Cc5ccccc5Cl)c4C)c3n2)cc1` in the assay.
active

Name the outcome recorded for `Fc1ccc(-c2csc3ncnc(N4CCc5ccccc5C4)c23)cc1` in the assay.
active

Name the outcome recorded for `O=C(Cc1ccc(Cl)cc1)Nc1ccccc1CO` in the assay.
inactive

Name the outcome recorded for `Clc1cncc(Cl)c1NNc1c2ccccc2nc2ccccc12` in the assay.
inactive

Name the outcome recorded for `c1ccc(Cn2c(CNc3nc4ccccc4n3CCN3CCCCC3)nc3ccccc32)cc1` in the assay.
inactive

Name the outcome recorded for `COc1ccccc1N1CCN(CC(=O)Nc2ccc(Cl)c(C(F)(F)F)c2)CC1` in the assay.
active

Name the outcome recorded for `O=C(CN1CCc2ccccc2C1)Nc1ccccc1N1CCCCCC1` in the assay.
active

Name the outcome recorded for `O=C(/C(=N\O)n1cncn1)c1ccc(Br)cc1Br` in the assay.
inactive

Name the outcome recorded for `Fc1cccc(-c2cc3nc4c(c(N5CCC6(CC5)OCCO6)n3n2)CCCC4)c1` in the assay.
inactive

Name the outcome recorded for `O=C(CCCCCN1C(=O)c2ccccc2C1=O)Nc1ccc(S(=O)(=O)N2CCCCC2)cc1` in the assay.
inactive

Name the outcome recorded for `O=c1c2cn[nH]c2nc(SCc2c(F)cccc2F)n1-c1ccc(Cl)cc1` in the assay.
inactive

Name the outcome recorded for `COc1ccc(S(=O)(=O)N2CCCCCC2)cc1C(=O)OCc1c(C)noc1C` in the assay.
inactive

----------
- PROTOCOL_TEXT: blockers of mitochondrial fusion, WT vs mutant – cell-based, chemical genetic, wild-type and mutant, confirmation (AID 1361)
- DETAILS: Cell-based mitochondrial fusion phenotype, imaging, WT cells
Activity calls are given as the source filed them. No rule for the calls is given here.
Entry note: the call must match one of yes (active), no (inactive)

Name the outcome recorded for `COc1cc(CNCCO)cc(Br)c1OCc1ccccc1Cl` in the assay.
no

Name the outcome recorded for COc1cccc(C2Nc3c(F)cc(Br)cc3C3C=CCC32)c1OC (configuration not stated) in the assay.
yes

Name the outcome recorded for S=C1NC(C23CC4CC(CC(C4)C2)C3)=CC(c2ccc3c(c2)OCO3)N1 (configuration not stated) in the assay.
yes

Name the outcome recorded for `Cc1cc(C)n(CCc2nc(-c3ccc(C(C)(C)C)cc3)cs2)n1` in the assay.
yes

Name the outcome recorded for Cc1ccc(C(C(=O)NCC2CCCO2)N(Cc2ccccc2)C(=O)c2ccc(-c3ccccc3)[nH]2)o1 (configuration not stated) in the assay.
yes

Name the outcome recorded for `Cc1cccc(NC(=O)c2ccc(N3CCCCC3)c([N+](=O)[O-])c2)n1` in the assay.
no

Name the outcome recorded for `Cc1ccc(NCC(=O)N/N=C/c2cc3ccccc3nc2Cl)cc1` in the assay.
no

Name the outcome recorded for `O=C(CNC(=S)N(Cc1ccccc1)Cc1ccccc1F)NCCc1ccc(Cl)cc1` in the assay.
yes

Name the outcome recorded for `CCCCN(C(=O)c1cccc2c(=O)c(C)c(-c3ccccc3)oc12)c1ccccc1` in the assay.
yes

Name the outcome recorded for `Cc1cccc(NC(=S)N/N=C/c2ccc3c(c2)OCO3)c1` in the assay.
no

Name the outcome recorded for `O=C(c1c(F)c(F)c(F)c(F)c1F)N(Cc1ccccc1)Cc1ccccc1` in the assay.
yes

Name the outcome recorded for `CC(C)Cc1nc(N2CCN(C(=O)c3ccccc3)CC2)c(C#N)c2c1CCC2` in the assay.
yes

Name the outcome recorded for `Clc1ccc(CSc2nnc(-c3ccncc3)o2)c(Cl)c1` in the assay.
no

Name the outcome recorded for `CCCCCC(=O)Nc1cc(N(C)C)nc2ccccc12` in the assay.
no

Name the outcome recorded for `O=C(CCc1ccccc1)Nc1nnc(-c2ccc3c(c2)CCCC3)o1` in the assay.
yes

Name the outcome recorded for `CCOC(=O)c1sc(NC(=O)/C=C/c2cnn(CC)c2C)c(C(=O)OCC)c1C` in the assay.
no

Name the outcome recorded for `O=c1cc(N2CCCCC2)c(-c2ccccc2)nn1Cc1ccc(F)cc1` in the assay.
yes

Name the outcome recorded for `Cc1ccc(SCC(=O)O/N=C(\N)c2cccc([N+](=O)[O-])c2)cc1` in the assay.
no

Name the outcome recorded for `COc1ccccc1-n1cnc2sc(-c3ccccc3)cc2c1=O` in the assay.
no

Name the outcome recorded for Cc1cccc(-n2ncc3c(N4CC(C)CC(C)C4)ncnc32)c1 (configuration not stated) in the assay.
yes

Name the outcome recorded for Cc1ccc(N(CC(O)Cn2c3ccccc3c3ccccc32)S(C)(=O)=O)c(C)c1 (configuration not stated) in the assay.
yes

Name the outcome recorded for `CC(=O)C(N=Nc1ccccc1)(Sc1nnc(-c2ccccc2)n1-c1ccccc1)C(C)=O` in the assay.
yes

----------
- PROTOCOL_TEXT: blockers of mitochondrial fusion, WT vs mutant – cell-based, chemical genetic, wild-type and mutant, confirmation (AID 1361)
- DETAILS: Cell-based mitochondrial fusion phenotype, imaging, WT cells
Activity calls are given as the source filed them. The rule behind the calls is not given here.
Provide the recorded IC50 for the entries that follow.

# IC50 lookup, item O=C(NC(Cc1c[nH]c2ccccc12)C(=O)Nc1ccc(OC(F)(F)F)cc1)c1cccs1 (centres undefined)
> 25 µM (inactive)

# IC50 lookup, item `Cc1ccnc(NS(=O)(=O)c2ccc(N=CC3=C(O)CC(C)(C)CC3=O)cc2)n1`
> 25 µM (inactive)

# IC50 lookup, item `COc1ccc(CNC(=O)[C@H](C)[C@@H]2C[C@@]2(C)[C@@H](NC(=O)OCc2ccccc2)c2ccccc2)cc1OC`
22.6 µM

# IC50 lookup, item `Nc1[nH]n2c(=O)c3c(nc2c1N=Nc1ccccc1)CCCC3`
> 25 µM (inactive)

# IC50 lookup, item `Cc1nc(N2CCCCC2)c2c(C)c(C(=O)Nc3cccc(C(F)(F)F)c3)sc2n1`
9.62 µM

# IC50 lookup, item Cc1sc(NC(=O)c2ccccc2)c(C(c2ccc(Cl)cc2)N2CCN(CCO)CC2)c1C (centres undefined)
13.5 µM

# IC50 lookup, item `CC(C)=CCc1c2c(c3occ(-c4ccc(O)cc4)c(=O)c3c1O)C=CC(C)(C)O2`
24.7 µM

# IC50 lookup, item `CCn1cc(C(=O)NCCc2ccccc2)c(=O)c2cc(F)c(N3CCN(C)CC3)cc21`
> 25 µM (inactive)

# IC50 lookup, item `O=C(Oc1cccnc1)c1ccc(Cl)c(Cl)c1`
> 25 µM (inactive)

----------
- PROTOCOL_TEXT: blockers of mitochondrial fusion, WT vs mutant – cell-based, chemical genetic, wild-type and mutant, confirmation (AID 1361)
- DETAILS: Cell-based mitochondrial fusion phenotype, imaging, WT cells
Activity calls are given as the source filed them. The rule behind the calls is not given here.
Entry note: the call must match one of active, inactive

Name the outcome recorded for `CCCn1c(N2CCC(Cc3ccccc3)CC2)nc2c1c(=O)[nH]c(=O)n2C` in the assay.
inactive

Name the outcome recorded for `O=C(COC(=O)c1ccc([N+](=O)[O-])s1)Nc1ncc(C(F)(F)F)cc1Cl` in the assay.
active

Name the outcome recorded for O=C(NC1CCS(=O)(=O)C1)c1ccc(-c2ccc(Br)cc2)o1 (stereo not given) in the assay.
inactive

Name the outcome recorded for `O=C(COC(=O)c1ccccc1C(=O)c1ccc(Cl)c([N+](=O)[O-])c1)NC1CCCCCC1` in the assay.
inactive

Name the outcome recorded for `CCOC(=O)C1=C(NC(=S)NC(=O)c2ccccc2)c2ccccc2CC12CCCC2` in the assay.
active

Name the outcome recorded for COc1ccc(-c2nsc3c(N4CCCCC4C)ncnc23)cc1 (stereo not given) in the assay.
active

Name the outcome recorded for `CC(C)C(=O)Nc1ccc(C(=O)NNC(=O)CCCOc2ccc(Cl)cc2Cl)cc1` in the assay.
inactive

Name the outcome recorded for CCOC(=O)C1=NN(c2ccccc2)C2(S1)SC(C(C)=O)=C(C)N2c1ccccc1 (stereo not given) in the assay.
active

Name the outcome recorded for `COc1ccc(OC)c(NC(=O)COC(=O)Cc2ccc(Br)cc2)c1` in the assay.
inactive

Name the outcome recorded for O=C(c1ccccn1)N1N=C2/C(=C/c3ccc(F)cc3)CCCC2C1c1ccc(F)cc1 (stereo not given) in the assay.
active
